- assayedTarget: FGFR1 (UniProt P11362)
- Sequence (P11362 whole entry, looked up): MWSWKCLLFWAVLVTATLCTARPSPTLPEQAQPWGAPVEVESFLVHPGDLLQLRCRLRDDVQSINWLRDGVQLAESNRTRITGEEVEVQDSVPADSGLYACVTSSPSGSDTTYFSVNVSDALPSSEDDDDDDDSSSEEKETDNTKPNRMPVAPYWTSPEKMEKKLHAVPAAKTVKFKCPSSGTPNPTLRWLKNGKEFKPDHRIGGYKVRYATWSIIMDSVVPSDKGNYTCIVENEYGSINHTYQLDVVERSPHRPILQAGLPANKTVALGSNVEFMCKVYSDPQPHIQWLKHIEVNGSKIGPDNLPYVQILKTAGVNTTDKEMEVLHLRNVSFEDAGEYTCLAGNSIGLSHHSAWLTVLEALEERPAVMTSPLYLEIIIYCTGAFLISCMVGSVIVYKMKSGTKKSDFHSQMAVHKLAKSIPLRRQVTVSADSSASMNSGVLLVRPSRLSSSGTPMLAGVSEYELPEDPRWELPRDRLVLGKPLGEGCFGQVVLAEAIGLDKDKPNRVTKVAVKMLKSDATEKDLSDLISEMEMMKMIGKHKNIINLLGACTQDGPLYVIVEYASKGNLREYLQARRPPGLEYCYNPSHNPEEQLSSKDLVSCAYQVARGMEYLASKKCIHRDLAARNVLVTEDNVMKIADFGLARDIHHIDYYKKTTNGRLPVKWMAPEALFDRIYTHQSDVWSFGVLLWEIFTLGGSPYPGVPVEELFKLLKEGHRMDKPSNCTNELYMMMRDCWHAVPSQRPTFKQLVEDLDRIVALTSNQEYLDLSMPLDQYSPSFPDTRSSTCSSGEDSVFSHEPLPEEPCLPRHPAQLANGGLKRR
- protocol: phosphorylation enrichment, bacterial display (enrichment ratio); higher = better substrate or ligand; peptides without Tyr show the background;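 also: 11-residue human phosphosite peptides and single-mutation variants displayed on the E. coli surface, counted by deep sequencing, each peptide's frequency after selection divided by its frequency in the unselected input library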;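 also: frequency after pTyr selection over input frequency; kinase dosed for 20-30% of maximal phosphorylation in three min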
Provide the reported phosphorylation enrichment of each item.

Worked cases, answers included:
YRIDHYLGKEM [G6PD_Y202] ... 0.57
ESPGLYGFLNV [BCR_Y910] ... 0.527
NDDDVYRSLEE [VAV2_Y142] ... 0.608
FTYDPYSEEEP [IL2RB_Y387_D391E] ... 0.5
FRIGPYQPSVP [MATR3_Y784_N787S_YF] ... 0.517
SGFESYGSSSS [RPA2_Y9_Y14S] ... 0.461
CFTRQYTLPPG [HSPB1_Y142_K141Q] ... 0.553
RNIQQYNSFVS [PRKAR1A_Y373] ... 0.573
LKKLEYLNLPL [LRRC6_Y70_A74P] ... 1.26
ALTRSYVREKV [CYP2C8_Y243_I244V] ... 0.364

Working through the 3 sequences below one at a time, give phosphorylation enrichment for each.
1. VICRRYLVMQR [IL3RA_Y328]
2. KHTLSYVDVGT [SDHA_Y629]
3. MSSLFYANTLF [HOXB7_Y6_YF]

## Output
1. 0.786
2. 0.724
3. 0.656

###

- assayedTarget: MERTK (UniProt Q12866)
- Sequence (Q12866 whole entry, looked up): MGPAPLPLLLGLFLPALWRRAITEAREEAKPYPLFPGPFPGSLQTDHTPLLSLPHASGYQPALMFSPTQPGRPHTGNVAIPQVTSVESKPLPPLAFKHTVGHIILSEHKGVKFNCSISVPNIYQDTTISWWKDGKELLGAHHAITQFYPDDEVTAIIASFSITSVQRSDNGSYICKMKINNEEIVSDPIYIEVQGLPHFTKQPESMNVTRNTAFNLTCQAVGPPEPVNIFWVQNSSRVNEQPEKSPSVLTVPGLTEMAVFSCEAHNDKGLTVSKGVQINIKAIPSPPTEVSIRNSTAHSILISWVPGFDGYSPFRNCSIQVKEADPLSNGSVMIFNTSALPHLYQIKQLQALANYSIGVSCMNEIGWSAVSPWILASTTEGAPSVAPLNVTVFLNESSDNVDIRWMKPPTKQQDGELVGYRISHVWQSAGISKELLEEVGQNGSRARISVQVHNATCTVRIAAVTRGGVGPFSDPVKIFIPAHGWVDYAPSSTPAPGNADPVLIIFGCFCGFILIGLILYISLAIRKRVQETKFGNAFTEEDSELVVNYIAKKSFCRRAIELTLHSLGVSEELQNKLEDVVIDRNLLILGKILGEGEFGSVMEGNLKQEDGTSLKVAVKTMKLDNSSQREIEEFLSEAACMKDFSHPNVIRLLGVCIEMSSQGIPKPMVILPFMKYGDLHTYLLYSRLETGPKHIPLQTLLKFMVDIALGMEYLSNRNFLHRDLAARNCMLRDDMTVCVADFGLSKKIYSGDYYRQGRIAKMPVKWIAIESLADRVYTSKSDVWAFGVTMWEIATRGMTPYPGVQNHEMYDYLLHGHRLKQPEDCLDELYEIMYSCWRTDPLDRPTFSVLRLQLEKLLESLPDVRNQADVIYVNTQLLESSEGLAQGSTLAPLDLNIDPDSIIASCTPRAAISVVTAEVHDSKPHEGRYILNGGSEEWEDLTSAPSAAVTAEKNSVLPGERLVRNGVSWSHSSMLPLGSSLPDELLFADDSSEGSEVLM
- protocol: phosphorylation enrichment, bacterial display (enrichment ratio); higher = better substrate or ligand; peptides without Tyr show the background
propertyMeasured: phosphorylation enrichment
Answers are plain numbers.

Worked cases, answers included:
QLATEYVFSDF [PANX1_Y10] ... 0.617
DHAGEYGAEAL [HBA1_Y25_A20D] ... 0.343
HNMPIYEGFAL [ACTA1_Y168_V165M_YF] ... 14.7
CFTRQYTLPPG [HSPB1_Y142_K141Q] ... 0.399
MANYVYKAGPS [MAML2_Y515_M514V] ... 0.473

Working through the 6 sequences below one at a time, give phosphorylation enrichment for each.
1. APSEFYDGDHD [HDAC3_Y414_N411S]
2. RRGLLYDSDEE [MCM2_Y137]
3. NREGVYRVFAP [TGFBI_Y537_T538R]
4. MKKMHYVDPDR [ST3GAL5_Y99_H104R]
5. WQQQSYLASGI [CTNNB1_Y30_D32A]
6. YTHSDYQYGQR [PKP2_Y166_S169G]

## Output
1. 0.51
2. 0.855
3. 0.533
4. 0.294
5. 0.411
6. 0.424

Working through the 2 sequences below one at a time, give phosphorylation enrichment for each.
1. KSMFVYCTPNK [ATP2A2_Y497_S495F]
2. LTECGYSFTTT [ACTB_Y198_R196C]

## Output
1: 0.452; 2: 0.417

###

- assayedTarget: Fyn (UniProt P06241)
- Sequence (P06241 whole entry, looked up): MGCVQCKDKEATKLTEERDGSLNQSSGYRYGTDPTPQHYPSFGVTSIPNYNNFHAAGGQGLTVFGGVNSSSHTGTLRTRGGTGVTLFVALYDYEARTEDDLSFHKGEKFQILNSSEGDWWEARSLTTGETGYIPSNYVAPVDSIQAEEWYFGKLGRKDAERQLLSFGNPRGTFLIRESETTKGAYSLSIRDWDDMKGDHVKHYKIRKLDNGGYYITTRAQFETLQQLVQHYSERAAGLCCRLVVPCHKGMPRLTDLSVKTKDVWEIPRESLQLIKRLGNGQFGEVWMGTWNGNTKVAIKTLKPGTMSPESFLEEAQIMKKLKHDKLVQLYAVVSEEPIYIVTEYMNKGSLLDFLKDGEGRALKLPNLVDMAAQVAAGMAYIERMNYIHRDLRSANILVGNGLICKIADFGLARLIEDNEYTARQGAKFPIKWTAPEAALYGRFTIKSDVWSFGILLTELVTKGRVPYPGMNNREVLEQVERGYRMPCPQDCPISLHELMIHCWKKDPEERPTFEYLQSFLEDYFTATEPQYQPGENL
- protocol: phosphorylation enrichment, bacterial display (enrichment ratio); higher = better substrate or ligand; peptides without Tyr show the background
Provide the reported phosphorylation enrichment of each item.
Give bare numbers.

Worked cases, answers included:
NCFKFYMSDDI [ATRX_Y204_YF] ... 0.386
NLTVNYKKNLI [SQOR_Y259] ... 0.351
TLSGIYQYNIA [FOXL2_Y81_I84N] ... 4.61
NSVLVYRNGDP [DCDC2_Y22_K17N] ... 0.443
AFPVSYSSSGA [RET_Y687] ... 0.344

Working through the 4 sequences below one at a time, give phosphorylation enrichment for each.
1. HGTKVYIDPFT [EPHB4_Y590]
2. SMEMKYLEEKN [ZAP70_Y451_G448E]
3. VDSNPYSHLMA [UBA5_Y53_R55H]
4. KIIRWYVSSEG [ANK2_Y3907_R3906W]

## Output
1. 0.601
2. 0.706
3. 0.639
4. 0.51
